- assay-system: Human recombinant PTP1B (hPTP1B) (Homo sapiens, UniProt P18031)
reported-endpoint: IC50 (nM)

compound=Cc1sc2c(Br)c3ccccc3c(-c3cc(Br)c(O)c([N+](=O)[O-])c3)c2c1C assay_system="Human recombinant PTP1B (hPTP1B) (Homo sapiens, UniProt P18031)" reported_endpoint=IC50 value_reported=381
compound="Cc1c(CN2CCOCC2)sc2c(Br)c3ccccc3c(-c3cc(Br)c(OC(Cc4ccccc4)C(=O)O)c(Br)c3)c12 (stereo not drawn)" assay_system="Human recombinant PTP1B (hPTP1B) (Homo sapiens, UniProt P18031)" reported_endpoint=IC50 value_reported=273
compound="Cc1sc2c(Br)c3ccccc3c(-c3cc(Br)c(OC(Cc4ccccc4)C(=O)O)c([N+](=O)[O-])c3)c2c1C (stereo not drawn)" assay_system="Human recombinant PTP1B (hPTP1B) (Homo sapiens, UniProt P18031)" reported_endpoint=IC50 value_reported=299

* * *

- Test system: rat hepatic microsomal PTPases
- recorded-conditions: 50 μM compound
reported-endpoint: % Change from Control (%)

As a guide, the following entries are already answered.
compound=Cc1sc2c(Br)c3ccccc3c(-c3cc(Br)c(O[C@H](CCc4ccccc4)C(=O)O)c(Br)c3)c2c1C value_reported=−89.41
compound=Cc1c(CN2CCOCC2)sc2c(Br)c3ccccc3c(-c3cc(Br)c(O)c(Br)c3)c12 value_reported=−30.40
compound=Cc1sc2c(Sc3ccccc3)c3ccccc3c(-c3cc(Br)c(O[C@H](Cc4ccccc4)C(=O)O)c(Br)c3)c2c1C value_reported=−61.92
compound=CCc1cc(-c2c3ccccc3c(Br)c3sc(C)c(C)c23)cc(Br)c1O[C@H](Cc1ccccc1)C(=O)O value_reported=−78.84
compound=Cc1cc(-c2c3ccccc3cc3sc(C)c(C)c23)cc(C)c1O[C@H](Cc1ccccc1)C(=O)O value_reported=−91.00
compound=Cc1sc2c(Br)c3ccccc3c(-c3ccc(O[C@H](Cc4ccccc4)C(=O)O)c(C4CCCC4)c3)c2c1C value_reported=−68.48

P: Cc1sc2c(Br)c3ccccc3c(-c3cc(Br)c(O[C@H](Cc4ccccc4)C(=O)O)c(Br)c3)c2c1C
Q: Cc1sc2c(Br)c3ccccc3c(-c3cc(Br)c(OC(Cc4ccccc4)C(=O)O)c([N+](=O)[O-])c3)c2c1C (centres unmarked)
Query: Among P and Q , whose measured % Change from Control is the smaller figure? # answer = label of selected item
Response: P

* * *

# collection of IC50 values tested on Human recombinant PTP1B (hPTP1B) (Homo sapiens, UniProt P18031)
reported-endpoint: IC50 (nM)

1: CCc1cc(-c2c3ccccc3c(Br)c3sc(C)c(C)c23)cc(CC)c1O[C@H](Cc1ccccc1)C(=O)O [Example 61]
2: Cc1sc2c(Br)c3ccccc3c(-c3cc(Br)c(O[C@H](CCc4ccccc4)C(=O)O)c(Br)c3)c2c1C [Example 32]
3: Cc1sc2c(Br)c3ccccc3c(-c3ccc(O[C@H](C)C(=O)O)c(C4CCCC4)c3)c2c1C [Example 72]
4: COc1c(Br)cc(-c2c3ccccc3c(Br)c3sc(C)c(C)c23)cc1NCC(=O)O [Example 60]
5: Cc1oc2cc3ccccc3c(-c3cc(Br)c(O[C@H](Cc4ccccc4)C(=O)O)c(Br)c3)c2c1C [Example 54]
Query: Form: Sort by [IC50] Order [ ascending ] Return the labels ranked in the requested order, please.
Response: 2, 1, 3, 5, 4
(2: 60 nM, 1: 164 nM, 3: 480 nM, 5: 982 nM, 4: 1510 nM)

1: Cc1sc2c(Br)c3ccccc3c(-c3cc(Br)c(O[C@H](Cc4ccccc4)C(=O)O)c(C4CCCC4)c3)c2c1C [Example 48]
2: CCc1cc(-c2c3ccccc3c(Br)c3sc(C)c(C)c23)cc(CC)c1O[C@H](Cc1ccccc1)C(=O)NCC(=O)O [Example 63]
Query: Hello, I am sorting some records. Could you say if 1 or 2 has the smaller IC50 value? Refer to your chosen entry by its label in the reply.
Response: 1

A: Cc1c(CN2CCOCC2)sc2c(Br)c3ccccc3c(-c3cc(Br)c(OC(C)C(=O)O)c(Br)c3)c12 (stereo not drawn) [Example 36]
B: COC(=O)CNc1cc(-c2c3ccccc3c(Br)c3sc(C)c(C)c23)cc(Br)c1OC [Example 59]
Query: Which value of IC50 is numerically greater: that of A or that of B ? Pick one; state its label.
Response: B

* * *

- assay-system: Human recombinant PTP1B (hPTP1B) (Homo sapiens, UniProt P18031)
- Sequence (P18031 1-435): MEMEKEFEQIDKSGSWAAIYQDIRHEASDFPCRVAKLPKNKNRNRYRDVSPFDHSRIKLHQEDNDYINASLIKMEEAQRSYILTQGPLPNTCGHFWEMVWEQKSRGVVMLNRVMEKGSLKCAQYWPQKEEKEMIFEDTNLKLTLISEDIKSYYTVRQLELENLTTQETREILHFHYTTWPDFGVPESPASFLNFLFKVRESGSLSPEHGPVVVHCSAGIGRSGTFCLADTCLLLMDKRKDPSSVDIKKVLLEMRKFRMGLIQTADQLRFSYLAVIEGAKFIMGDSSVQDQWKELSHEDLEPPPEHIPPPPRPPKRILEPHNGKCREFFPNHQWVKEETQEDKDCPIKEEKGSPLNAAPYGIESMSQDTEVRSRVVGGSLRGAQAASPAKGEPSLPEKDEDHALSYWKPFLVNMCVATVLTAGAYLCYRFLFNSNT
reported-endpoint: IC50 (nM)

Take a look at these entries with their results.
smiles=CCCc1cc(-c2c3ccccc3c(Br)c3sc(C)c(C)c23)ccc1O[C@H](Cc1ccccc1)C(=O)O value_reported=130
smiles=Cc1sc2c(Sc3ccccc3)c3ccccc3c(-c3cc(Br)c(O[C@H](Cc4ccccc4)C(=O)O)c(Br)c3)c2c1C value_reported=29
smiles=Cc1sc2cc3ccccc3c(-c3ccc(O[C@H](Cc4ccccc4)C(=O)O)c(F)c3)c2c1C value_reported=2210
smiles=Cc1cc(-c2c3ccccc3c(Br)c3sc(C)c(C)c23)cc(C)c1O[C@H](Cc1ccccc1)C(=O)NCC(=O)O value_reported=28
smiles=Cc1sc2c(Br)c3ccccc3c(-c3ccc(O[C@H](Cc4ccccc4)C(=O)O)c(C4CCCC4)c3)c2c1C value_reported=95

1: Cc1sc2c(Br)c3ccccc3c(-c3cc(Br)c(O)c(NC(=O)OC(C)(C)C)c3)c2c1C
2: Cc1sc2c(Br)c3ccccc3c(-c3cc(C(C)C)c(OCC(=O)O)c(C(C)C)c3)c2c1C
Query: Please state the entry with greater IC50 among 1 and 2 . Write the label of whichever entry you select.
Response: 1
(1: 489 nM, 2: 204 nM)

a: CCc1cc(-c2c3ccccc3c(Br)c3sc(C)c(C)c23)cc(Br)c1O[C@H](Cc1ccccc1)C(=O)O
b: Cc1sc2cc3ccccc3c(-c3cc(C(C)C)c(O[C@H](Cc4ccccc4)C(=O)O)c(C(C)C)c3)c2c1C
Query: Look at a and b . Which one has the lower recorded IC50 number? Please indicate the selected item by its label.
Response: a

All values here come from patent US6444670B2.
